B1: glmS ribozyme (parent)
chain: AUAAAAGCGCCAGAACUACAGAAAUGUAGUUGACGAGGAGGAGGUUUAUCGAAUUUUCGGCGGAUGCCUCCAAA

# Variants of: B1
# TEST PROTOCOL: self-cleavage kobs at 640 uM GlcN6P; higher = faster cleavage; RNA array
# MEASUREMENT CONTEXT: with glucosamine-6-phosphate
This sample holds only a part of the variants without activity.
Consider the following variants; for each one, report its self-cleavage kobs at 640 uM GlcN6P.

Field self-cleavage kobs at 640 uM GlcN6P (entry G38A G41C U54G C61A ) reads < 1e-05 s⁻¹

// self-cleavage kobs at 640 uM GlcN6P value for G29A U47C : 8.17e-05 s⁻¹

For reference, reported self-cleavage kobs at 640 uM GlcN6P for G40U A53G stands at 0.00118 s⁻¹

The measured self-cleavage kobs at 640 uM GlcN6P associated with A39U G51U reads < 1e-05 s⁻¹

In plain terms, U45G C68U has a documented self-cleavage kobs at 640 uM GlcN6P of 0.000145 s⁻¹

self-cleavage kobs at 640 uM GlcN6P for U45G U49C is < 1e-05 s⁻¹

Lookup result for C10G U31C A48U C61A C70G ; measured self-cleavage kobs at 640 uM GlcN6P: < 1e-05 s⁻¹

According to the records, this variant G13U G35C A64U displays self-cleavage kobs at 640 uM GlcN6P of < 1e-05 s⁻¹

For this variant ( C8G U57C G62U ), measured self-cleavage kobs at 640 uM GlcN6P is < 1e-05 s⁻¹

Lab note: measured self-cleavage kobs at 640 uM GlcN6P of A48U U49A C68A was < 1e-05 s⁻¹

Sure, the documented self-cleavage kobs at 640 uM GlcN6P for U31G U65G is 0.000375 s⁻¹

The recorded self-cleavage kobs at 640 uM GlcN6P for entry G37A U54A U65G equals 4.03e-05 s⁻¹

The measured self-cleavage kobs at 640 uM GlcN6P associated with A15C U46C reads 0.000119 s⁻¹

// self-cleavage kobs at 640 uM GlcN6P value for A15G A42U C71U : 7.41e-05 s⁻¹

Recorded result, C10A A42U , self-cleavage kobs at 640 uM GlcN6P: < 1e-05 s⁻¹

Form: variant = U57A C67G ; self-cleavage kobs at 640 uM GlcN6P = 5.39e-05 s⁻¹

The variant identified as G7U A12G A48U G63U registered its self-cleavage kobs at 640 uM GlcN6P at < 1e-05 s⁻¹

GET /value?item= A6C C61G &field=self-cleavage kobs at 640 uM GlcN6P returns < 1e-05 s⁻¹

Memo: C34A G44U G51C , reported self-cleavage kobs at 640 uM GlcN6P: < 1e-05 s⁻¹

Please fill in: self-cleavage kobs at 640 uM GlcN6P reported for C8U C58U = < 1e-05 s⁻¹

What the record says about C16G C34G A42C G43A : self-cleavage kobs at 640 uM GlcN6P is < 1e-05 s⁻¹

Per the records, this variant ( C11U G43A A48U A53C C61U ) has self-cleavage kobs at 640 uM GlcN6P equal to < 1e-05 s⁻¹
